Target: T1, recombinant human IL-6 (human, UniProt P05231 30-212)
T1 construct: Bought protein
T1 sequence (P05231 30-212 limits assumed): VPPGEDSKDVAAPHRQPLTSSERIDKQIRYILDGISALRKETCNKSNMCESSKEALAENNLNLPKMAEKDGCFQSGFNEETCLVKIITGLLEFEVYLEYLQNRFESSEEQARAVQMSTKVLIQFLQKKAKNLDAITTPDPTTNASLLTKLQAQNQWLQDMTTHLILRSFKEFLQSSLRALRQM
Experiment: SPR Biacore, purified Ab on Protein A chip, IL-6 analyte, 37 C
Protocol: Antibodies were captured on a Protein A chip (GE) by injecting 1:20 dilution of cell supernatant at 10 μL/min for 60 seconds. […] The sensor chip was regenerated by a 60 seconds injection of 10 mM Glycine pH 1.7 at flow rate of 50 μL/min. […] For this setup, 1 μg/mL of purified antibody was injected over a Protein A chip at 10 μL/min for 25-28 seconds. Data analysis for supernatant and purified samples were performed using BIAevaluation software (GE). […]
Give koff for every item shown.
One number for each entry, in s⁻¹.

{"binder": "anti-IL-6 antibody, light chain M50D (heavy chain WT) (antibody, V domains shown, See note of m2; also called WT / M50D) VH: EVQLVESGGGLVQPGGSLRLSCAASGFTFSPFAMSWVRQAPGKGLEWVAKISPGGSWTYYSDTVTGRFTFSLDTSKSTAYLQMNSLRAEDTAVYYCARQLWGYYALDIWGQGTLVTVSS VL: DIQLTQSPSSLSASVGDRVTITCSASISVSYMYWYQQKPGKAPKLLIYDDSNLASGVPSRFSGSGSGTDFTLTISSLQPEDFATYYCMQWSGYPYTFGQGTKVEIK", "koff [s⁻¹]": 0.000464}

Can you give me koff for all of these, one by one?
1. anti-IL-6 antibody, light chain T96L (heavy chain WT) (antibody, V domains shown, See note of m2; also called WT / T96L) VH: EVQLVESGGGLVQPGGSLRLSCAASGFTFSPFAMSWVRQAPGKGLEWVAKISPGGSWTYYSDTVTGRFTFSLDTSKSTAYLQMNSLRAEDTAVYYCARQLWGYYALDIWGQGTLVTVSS VL: DIQLTQSPSSLSASVGDRVTITCSASISVSYMYWYQQKPGKAPKLLIYDMSNLASGVPSRFSGSGSGTDFTLTISSLQPEDFATYYCMQWSGYPYLFGQGTKVEIK
2. anti-IL-6 antibody, heavy chain variant II (M34W, G66D, I108V) / light chain variant III (M32L, M50D, N52S, M88Q) (antibody, V domains shown, See note of m39; also called M34W, G66D, I108V/ M32L, M50D, N52S, M88Q; II/III) VH: EVQLVESGGGLVQPGGSLRLSCAASGFTFSPFAWSWVRQAPGKGLEWVAKISPGGSWTYYSDTVTDRFTFSLDTSKSTAYLQMNSLRAEDTAVYYCARQLWGYYALDVWGQGTLVTVSS VL: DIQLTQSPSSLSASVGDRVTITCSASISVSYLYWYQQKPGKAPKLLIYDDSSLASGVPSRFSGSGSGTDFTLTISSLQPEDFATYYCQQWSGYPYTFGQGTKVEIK

Output:
0.000795
0.000551
